protocol-notes: Plasma concentration in Wistar Hannover rat at 3 mg/kg, ip measured after 3.5 hrs
Format: ADME, organism-based
measured-endpoint: concentration at 3.5 h (nM)

[[record]]
smiles_entry = "Cc1nc(C)c(CNc2nc(OCCCc3ccc4ccccc4n3)nc(Cl)c2C)s1"
result_number = 83


====

Reported Ratio Ki values are given for each entry in this list.
Species on record: Homo sapiens
protocol-notes: Selectivity ratio of Ki for human PDE4A1A to Ki for human PDE10A2
measured-endpoint: Ratio Ki

[[record]]
smiles_entry = "Cc1nc(C)c(CNc2nc(OCCCc3ccc4ccccc4n3)nc(Cl)c2C)s1"
result = "> 1000"

[[record]]
smiles_entry = "Cc1c(Cl)nc(C2CC2)nc1Cl"
result = 1

[[record]]
smiles_entry = "Cc1nc(C)c(CNc2nc(C3CC3)nc(Cl)c2C)s1"
result = 100

[[record]]
smiles_entry = "CCCNc1nc(C2CC2)nc(Cl)c1C"
result = 1


====

protocol-notes: Plasma concentration in Wistar Hannover rat at 5 mg/kg, ip measured after 3.5 hrs
Format: ADME, organism-based
measured-endpoint: concentration at 3.5 h

[[record]]
smiles_entry = "Cc1nc(C)c(CNc2nc(OCCCc3ccc4ccccc4n3)nc(Cl)c2C)s1"
result = "110 nM"


====

subject-of-test: cAMP and cAMP-inhibited cGMP 3',5'-cyclic phosphodiesterase 10A (Homo sapiens, UniProt Q9Y233)
Sequence (Q9Y233 whole entry): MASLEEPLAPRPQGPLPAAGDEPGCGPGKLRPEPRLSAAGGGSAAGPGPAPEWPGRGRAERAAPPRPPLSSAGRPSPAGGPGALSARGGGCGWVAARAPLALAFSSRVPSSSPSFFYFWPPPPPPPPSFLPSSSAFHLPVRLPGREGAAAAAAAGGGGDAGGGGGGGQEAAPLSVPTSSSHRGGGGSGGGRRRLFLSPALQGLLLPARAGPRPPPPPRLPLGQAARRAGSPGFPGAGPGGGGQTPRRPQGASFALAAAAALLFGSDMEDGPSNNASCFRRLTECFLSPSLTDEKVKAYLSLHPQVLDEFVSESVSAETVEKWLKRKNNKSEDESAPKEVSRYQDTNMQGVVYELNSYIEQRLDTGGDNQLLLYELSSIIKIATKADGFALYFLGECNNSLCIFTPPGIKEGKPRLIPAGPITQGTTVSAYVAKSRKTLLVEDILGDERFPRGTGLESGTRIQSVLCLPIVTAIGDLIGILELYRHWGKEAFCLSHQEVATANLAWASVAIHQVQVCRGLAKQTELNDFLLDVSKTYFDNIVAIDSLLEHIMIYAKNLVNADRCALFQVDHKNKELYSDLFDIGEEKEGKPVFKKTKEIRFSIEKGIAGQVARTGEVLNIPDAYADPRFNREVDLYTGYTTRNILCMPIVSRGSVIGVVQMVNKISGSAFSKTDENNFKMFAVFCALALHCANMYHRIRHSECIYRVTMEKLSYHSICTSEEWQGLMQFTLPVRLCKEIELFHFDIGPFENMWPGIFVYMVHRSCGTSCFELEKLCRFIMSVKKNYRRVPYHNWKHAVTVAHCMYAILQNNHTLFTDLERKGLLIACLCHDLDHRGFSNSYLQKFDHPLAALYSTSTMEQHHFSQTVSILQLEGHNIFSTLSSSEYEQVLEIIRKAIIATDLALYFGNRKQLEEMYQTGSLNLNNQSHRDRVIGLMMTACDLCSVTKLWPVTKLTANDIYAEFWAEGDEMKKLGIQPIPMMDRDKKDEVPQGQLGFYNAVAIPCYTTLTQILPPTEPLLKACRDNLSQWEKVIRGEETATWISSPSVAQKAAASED
protocol-notes: Inhibition of human PDE10A2 transfected in AD293 cells by IMAP FP assay
pKi: −log10 of the molar value.
measured-endpoint: pKi

[[record]]
smiles_entry = "Cc1cc(CNc2nc(C3CC3)nc(Cl)c2C)on1"
result_number = 7.42

[[record]]
smiles_entry = "Cc1ncc(CNc2nc(C3CC3)nc(Cl)c2C)s1"
result_number = 7.59

[[record]]
smiles_entry = "CCCOc1nc(Cl)c(C)c(NCc2sc(C)nc2C)n1"
result_number = 8.29

